- Tested on: 233499-124-R-J3-PDC complex spheroid growth
- assay-procedure: Anticancer human tumor 233499-124-R-J3-PDC patient-derived colon adenocarcinoma cell line growth inhibition [AhR]
- condition-description: curve of first compound; second compound 0.316 µM
experimental-endpoint: IC50

Here's what some known entries look like.
{"compound": "COc1cc(Nc2ncc3c(n2)-c2ccc(Cl)cc2C(c2c(F)cccc2OC)=NC3)ccc1C(=O)O + Cc1ccccc1N=Nc1ccc(NC(=O)c2ccnn2C)c(C)c1", "assayed-system": "233499-124-R-J3-PDC complex spheroid growth", "recorded-result": "> 10 µM"}
{"compound": "COc1cccc2c1C(=O)c1c(O)c3c(c(O)c1C2=O)CC(O)(C(=O)CO)CC3OC1CC(N)C(O)C(C)O1 (stereo not given) + CC(CO)NC(=O)c1cc(-c2ccc(Cl)cc2)nn(-c2cnn(C)c2)c1=O", "assayed-system": "233499-124-R-J3-PDC complex spheroid growth", "recorded-result": "5.32 µM"}
{"compound": "Nc1ccn(C2OC(CO)C(O)C2(F)F)c(=O)n1 (stereo not given) + Cc1ccccc1N=Nc1ccc(NC(=O)c2ccnn2C)c(C)c1", "assayed-system": "233499-124-R-J3-PDC complex spheroid growth", "recorded-result": "0.282 µM"}
{"compound": "CC[C@@]1(O)C(=O)OCc2c1cc1n(c2=O)Cc2cc3c(CN(C)C)c(O)ccc3nc2-1 + CC(CO)NC(=O)c1cc(-c2ccc(Cl)cc2)nn(-c2cnn(C)c2)c1=O", "assayed-system": "233499-124-R-J3-PDC complex spheroid growth", "recorded-result": "> 0.1 µM"}
{"compound": "COc1cc(Nc2ncc3c(n2)-c2ccc(Cl)cc2C(c2c(F)cccc2OC)=NC3)ccc1C(=O)O + CC(CO)NC(=O)c1cc(-c2ccc(Cl)cc2)nn(-c2cnn(C)c2)c1=O", "assayed-system": "233499-124-R-J3-PDC complex spheroid growth", "recorded-result": "> 10 µM"}

Here are 7 compounds. What values of IC50 were reported for them?
1. COc1cc(C2c3cc4c(cc3C(OC3OC5COC(C)OC5C(O)C3O)C3COC(=O)C23)OCO4)cc(OC)c1O (stereo not given) + Cc1cncc(-c2nc(NCCc3c[nH]c4ccccc34)c3ncn(C(C)C)c3n2)c1
2. CC1COCCN1c1cc(-c2ccnn2C)c2ccnc(-c3ccn[nH]3)c2n1 (stereo not given) + Cc1ccccc1N=Nc1ccc(NC(=O)c2ccnn2C)c(C)c1
3. CC1(C)CCC(CN2CCN(c3ccc(C(=O)NS(=O)(=O)c4ccc(NCC5CCOCC5)c([N+](=O)[O-])c4)c(Oc4cnc5[nH]ccc5c4)c3)CC2)=C(c2ccc(Cl)cc2)C1 + CC(CO)NC(=O)c1cc(-c2ccc(Cl)cc2)nn(-c2cnn(C)c2)c1=O
4. Cn1ncnc1C1c2n[nH]c(=O)c3cc(F)cc(c23)NC1c1ccc(F)cc1 (stereo not given) + Cc1ccccc1N=Nc1ccc(NC(=O)c2ccnn2C)c(C)c1
5. CC[C@@]1(O)C(=O)OCc2c1cc1n(c2=O)Cc2cc3c(CN(C)C)c(O)ccc3nc2-1 + Cc1ccccc1N=Nc1ccc(NC(=O)c2ccnn2C)c(C)c1
6. O=C(C=Cc1cccc(S(=O)(=O)Nc2ccccc2)c1)NO + Cc1ccccc1N=Nc1ccc(NC(=O)c2ccnn2C)c(C)c1
7. COc1cc(Nc2ncc3c(n2)-c2ccc(Cl)cc2C(c2c(F)cccc2OC)=NC3)ccc1C(=O)O + Cc1cncc(-c2nc(NCCc3c[nH]c4ccccc34)c3ncn(C(C)C)c3n2)c1

1. > 10 µM
2. > 1 µM
3. 7.05 µM
4. > 0.1 µM
5. > 0.1 µM
6. 5.96 µM
7. > 10 µM

----------
Hi there, I'd appreciate the recorded viability, T/C for every entry that follows.
- Tested on: 233499-124-R-J3-PDC complex spheroid growth
- assay-procedure: Anticancer human tumor 233499-124-R-J3-PDC cell line growth inhibition [AhR];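 note: spheroids exposed to agents for seven days before reading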
- condition-description: second compound 0.1 µM; first compound 0.0316 µM; stronger effect = lower value
Give bare numbers, in %.

{"molecule": "CC1COCCN1c1cc(-c2ccnn2C)c2ccnc(-c3ccn[nH]3)c2n1 (centres undefined) + CC(CO)NC(=O)c1cc(-c2ccc(Cl)cc2)nn(-c2cnn(C)c2)c1=O", "result-unit": "%", "viability, T/C": 89.1}

Here are 5 molecules. What values of viability, T/C were reported for them?
1. O=C(c1cc(Cc2n[nH]c(=O)c3ccccc23)ccc1F)N1CCN(C(=O)C2CC2)CC1 + Cc1ccccc1N=Nc1ccc(NC(=O)c2ccnn2C)c(C)c1
2. Nc1ncn(C2CC(O)C(CO)O2)c(=O)n1 (centres undefined) + CC(CO)NC(=O)c1cc(-c2ccc(Cl)cc2)nn(-c2cnn(C)c2)c1=O
3. COc1cc(Nc2ncc3c(n2)-c2ccc(Cl)cc2C(c2c(F)cccc2OC)=NC3)ccc1C(=O)O + CC(CO)NC(=O)c1cc(-c2ccc(Cl)cc2)nn(-c2cnn(C)c2)c1=O
4. CC[C@@]1(O)C(=O)OCc2c1cc1n(c2=O)Cc2cc3c(CN(C)C)c(O)ccc3nc2-1 + Cc1cncc(-c2nc(NCCc3c[nH]c4ccccc34)c3ncn(C(C)C)c3n2)c1
5. COc1ccc([C@@H](O)c2cc(-c3ncnc4cc(N5CCOCC5)ccc34)c(F)cc2Cl)nn1 + Cc1ccccc1N=Nc1ccc(NC(=O)c2ccnn2C)c(C)c1

[106, 104, 75.4, 97.6, 90.3]

Here are 3 molecules. What values of viability, T/C were reported for them?
1. COc1ccc([C@@H](O)c2cc(-c3ncnc4cc(N5CCOCC5)ccc34)c(F)cc2Cl)nn1 + Cc1cncc(-c2nc(NCCc3c[nH]c4ccccc34)c3ncn(C(C)C)c3n2)c1
2. COc1cc(Nc2ncc3c(n2)-c2ccc(Cl)cc2C(c2c(F)cccc2OC)=NC3)ccc1C(=O)O + Cc1cncc(-c2nc(NCCc3c[nH]c4ccccc34)c3ncn(C(C)C)c3n2)c1
3. O=C(C=Cc1cccc(S(=O)(=O)Nc2ccccc2)c1)NO + Cc1cncc(-c2nc(NCCc3c[nH]c4ccccc34)c3ncn(C(C)C)c3n2)c1

[87.6, 81, 103]

----------
- Tested on: 233499-124-R-J3-PDC complex spheroid growth
- assay-procedure: Anticancer human tumor 233499-124-R-J3-PDC cell line growth inhibition [AhR];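 note: spheroids exposed to agents for seven days before reading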
- condition-description: second compound 0.1 µM; first compound 1 µM; stronger effect = lower value
Hi there, I'd appreciate the recorded viability, T/C for every entry that follows.
Give bare numbers, in %.

Here's what some known entries look like.
{"molecule": "COc1cc(C2c3cc4c(cc3C(OC3OC5COC(C)OC5C(O)C3O)C3COC(=O)C23)OCO4)cc(OC)c1O (stereo unspecified) + CC(CO)NC(=O)c1cc(-c2ccc(Cl)cc2)nn(-c2cnn(C)c2)c1=O", "experimental-endpoint": "viability, T/C", "result-unit": "%", "recorded-result": 90.1}
{"molecule": "CC1(C)CCC(CN2CCN(c3ccc(C(=O)NS(=O)(=O)c4ccc(NCC5CCOCC5)c([N+](=O)[O-])c4)c(Oc4cnc5[nH]ccc5c4)c3)CC2)=C(c2ccc(Cl)cc2)C1 + CC(CO)NC(=O)c1cc(-c2ccc(Cl)cc2)nn(-c2cnn(C)c2)c1=O", "experimental-endpoint": "viability, T/C", "result-unit": "%", "recorded-result": 102}
{"molecule": "CC1(C)CCC(CN2CCN(c3ccc(C(=O)NS(=O)(=O)c4ccc(NCC5CCOCC5)c([N+](=O)[O-])c4)c(Oc4cnc5[nH]ccc5c4)c3)CC2)=C(c2ccc(Cl)cc2)C1 + Cc1ccccc1N=Nc1ccc(NC(=O)c2ccnn2C)c(C)c1", "experimental-endpoint": "viability, T/C", "result-unit": "%", "recorded-result": 108}
{"molecule": "CC1COCCN1c1cc(C2(S(C)(=N)=O)CC2)nc(-c2ccnc3[nH]ccc23)n1 (stereo unspecified) + Cc1cncc(-c2nc(NCCc3c[nH]c4ccccc34)c3ncn(C(C)C)c3n2)c1", "experimental-endpoint": "viability, T/C", "result-unit": "%", "recorded-result": 95.1}
{"molecule": "Nc1ncn(C2CC(O)C(CO)O2)c(=O)n1 (stereo unspecified) + Cc1ccccc1N=Nc1ccc(NC(=O)c2ccnn2C)c(C)c1", "experimental-endpoint": "viability, T/C", "result-unit": "%", "recorded-result": 111}

Below: the item to evaluate.
# lookup: viability, T/C of CC(C)c1c(-c2ccccc2)nc2c(C#N)c[nH]n2c1=O + Cc1cncc(-c2nc(NCCc3c[nH]c4ccccc34)c3ncn(C(C)C)c3n2)c1
108

----------
- Tested on: 233499-124-R-J3-PDC complex spheroid growth
- assay-procedure: Anticancer human tumor 233499-124-R-J3-PDC cell line growth inhibition [AhR]; active = viability on the fitted dose curve at most 10% of control; inactive = the rest;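 note: spheroids exposed to agents for seven days before reading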
- condition-description: second compound 10 µM; first compound 0.1 µM
Select the matching outcome among active, inactive

{"molecule": "CC1(C)CCC(CN2CCN(c3ccc(C(=O)NS(=O)(=O)c4ccc(NCC5CCOCC5)c([N+](=O)[O-])c4)c(Oc4cnc5[nH]ccc5c4)c3)CC2)=C(c2ccc(Cl)cc2)C1 + Cc1ccccc1N=Nc1ccc(NC(=O)c2ccnn2C)c(C)c1", "class-assignment": "inactive"}
{"molecule": "CC1COCCN1c1cc(C2(S(C)(=N)=O)CC2)nc(-c2ccnc3[nH]ccc23)n1 (stereo unspecified) + CC(CO)NC(=O)c1cc(-c2ccc(Cl)cc2)nn(-c2cnn(C)c2)c1=O", "class-assignment": "inactive"}
{"molecule": "COc1ccc([C@@H](O)c2cc(-c3ncnc4cc(N5CCOCC5)ccc34)c(F)cc2Cl)nn1 + Cc1cncc(-c2nc(NCCc3c[nH]c4ccccc34)c3ncn(C(C)C)c3n2)c1", "class-assignment": "active"}
{"molecule": "CC1(C)CCC(CN2CCN(c3ccc(C(=O)NS(=O)(=O)c4ccc(NCC5CCOCC5)c([N+](=O)[O-])c4)c(Oc4cnc5[nH]ccc5c4)c3)CC2)=C(c2ccc(Cl)cc2)C1 + Cc1cncc(-c2nc(NCCc3c[nH]c4ccccc34)c3ncn(C(C)C)c3n2)c1", "class-assignment": "inactive"}
{"molecule": "COc1cccc2c1C(=O)c1c(O)c3c(c(O)c1C2=O)CC(O)(C(=O)CO)CC3OC1CC(N)C(O)C(C)O1 (stereo unspecified) + Cc1cncc(-c2nc(NCCc3c[nH]c4ccccc34)c3ncn(C(C)C)c3n2)c1", "class-assignment": "inactive"}

Per the assay record, what outcome was assigned to COc1cc(C2c3cc4c(cc3C(OC3OC5COC(C)OC5C(O)C3O)C3COC(=O)C23)OCO4)cc(OC)c1O (stereo unspecified) + Cc1cncc(-c2nc(NCCc3c[nH]c4ccccc34)c3ncn(C(C)C)c3n2)c1 ?
inactive

Likewise for CC1COCCN1c1cc(-c2ccnn2C)c2ccnc(-c3ccn[nH]3)c2n1 (stereo unspecified) + Cc1cncc(-c2nc(NCCc3c[nH]c4ccccc34)c3ncn(C(C)C)c3n2)c1 ?
active

Likewise for CC(C)c1c(-c2ccccc2)nc2c(C#N)c[nH]n2c1=O + Cc1cncc(-c2nc(NCCc3c[nH]c4ccccc34)c3ncn(C(C)C)c3n2)c1 ?
active

Likewise for O=C(c1cc(Cc2n[nH]c(=O)c3ccccc23)ccc1F)N1CCN(C(=O)C2CC2)CC1 + Cc1ccccc1N=Nc1ccc(NC(=O)c2ccnn2C)c(C)c1 ?
inactive

Likewise for Nc1ncn(C2CC(O)C(CO)O2)c(=O)n1 (stereo unspecified) + CC(CO)NC(=O)c1cc(-c2ccc(Cl)cc2)nn(-c2cnn(C)c2)c1=O ?
inactive

Likewise for CC[C@@]1(O)C(=O)OCc2c1cc1n(c2=O)Cc2cc3c(CN(C)C)c(O)ccc3nc2-1 + Cc1ccccc1N=Nc1ccc(NC(=O)c2ccnn2C)c(C)c1 ?
inactive
